B1: ZNF75A (parent)
chain: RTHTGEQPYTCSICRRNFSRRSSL

- Variants of: B1
- Measurement Protocol: protein stability index of a GFP-peptide fusion (GPS, HEK-293T) (PSI 1-6); higher = more stable;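 also: lentivirally expressed fusions sorted by FACS into six bins by GFP to DsRed ratio, PSI derived from sequencing read proportions per bin multiplied by bin number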
- Stated Conditions: c terminus: a fixed tail appended
Please enter true (1) where protein stability index is greater than or equal to 3, and false (0) where it is lower.

Record excerpt, results attached:
R16H	false (0)
G5M	false (0)
R15Q	false (0)

**Q:** Quick check, protein stability index >= 3? R15A
**A:** false (0)

**Q:** Then this variant: T10L
**A:** false (0)

**Q:** Then this variant: R15H
**A:** false (0)
